Assay: In vitro cytotoxicity assay, A549
Format: cell-based, mammalian
Settings: human
PROPERTY_NAME: IC50 at 24 h

                                smiles_text  property_name   test_result
0  CN1CCN(c2ccc3[nH]c(-c4ccc5[nH]c(-c6ccc(O)cc6)nc5c4)nc3c2)CC1   IC50 at 24 h  ≥ 31.2 µg/mL

====

Experiment: In vitro cytotoxicity assay, BEAS-2B
Assay type: cell-based, mammalian
Details: human
PROPERTY_NAME: IC50 at 24 h

>>> print(df.to_string())
                                smiles_text   test_result
0  CN1CCN(c2ccc3[nH]c(-c4ccc5[nH]c(-c6ccc(O)cc6)nc5c4)nc3c2)CC1  ≥ 31.2 µg/mL
